- target: human MASP-2 (human, UniProt O00187 16-686)
- Sequence (O00187 16-686): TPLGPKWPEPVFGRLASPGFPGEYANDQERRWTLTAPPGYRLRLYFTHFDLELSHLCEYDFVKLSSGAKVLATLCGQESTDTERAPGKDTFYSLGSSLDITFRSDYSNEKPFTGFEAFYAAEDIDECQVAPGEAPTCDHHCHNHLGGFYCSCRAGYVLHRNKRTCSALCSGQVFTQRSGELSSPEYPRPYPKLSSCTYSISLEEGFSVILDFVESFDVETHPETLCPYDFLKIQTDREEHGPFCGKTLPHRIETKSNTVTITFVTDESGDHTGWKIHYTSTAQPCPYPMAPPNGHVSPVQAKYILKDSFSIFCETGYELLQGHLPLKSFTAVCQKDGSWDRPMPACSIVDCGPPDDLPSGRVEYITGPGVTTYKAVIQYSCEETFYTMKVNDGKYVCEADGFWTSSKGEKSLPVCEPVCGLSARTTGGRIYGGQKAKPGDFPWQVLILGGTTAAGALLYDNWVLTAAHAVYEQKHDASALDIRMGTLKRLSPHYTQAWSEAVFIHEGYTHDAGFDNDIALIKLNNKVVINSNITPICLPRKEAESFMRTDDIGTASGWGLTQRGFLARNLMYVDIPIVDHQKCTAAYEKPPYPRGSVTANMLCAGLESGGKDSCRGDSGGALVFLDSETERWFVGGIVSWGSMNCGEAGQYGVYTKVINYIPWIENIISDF
- assay_details: cell-based or functional assay
Here, each record is paired with measured Inhibitory activity in Human Serum IC50 (C3b deposition, 0.5% human serum) data.
property_label: Inhibitory activity in Human Serum IC50 (C3b deposition, 0.5% human serum) (nM)

{"binder": "scFv mother clone 9P13 (scFv) scFv: QVQLQQSGPGLVKPSQTLSLTCAISGDSVSSNSAAWNWIRQSPSRGLEWLGRTYYRSKWYNDYAVSVKSRITINPDTSKNQFSLQLNSVTPEDTAVYYCARDPFGVPFDIWGQGTMVTVSSKLSGSASAPKLEEGEFSEARVSYELTQLPSVSVAPGQTARVTCGGNNIRSKNVHWYQQKPGQAPVLVVYDDTDRPSGIPERFSGSNSGNTATLTVSRVEAGDEADYYCQVWDTTTDHVVFGGGTKVTVLAAAGSEQKLISEEDLNSHHHHHH", "obs_value": 28.9}
{"binder": "scFv mother clone 18L16 (scFv) scFv: QVTLKESGPVLVKPTETLTLTCTVSGFSLSNARMGVSWIRQPPGKALEWLAHIFSNDEKSYSTSLKSRLTISKDTSKSQVVLTMTNMDPVDTATYYCARMAILTAGGMDVWGQGTTVTVSSKLSGSASAPKLEEGEFSEARVSYVLTQPPSVSASPGQTASITCSGDKLGDKYVSWYQQKPGRSPVLVIYRDTKRPSGIPERFSGSNYGNTATLTISGTQAVDEADYYCQAWDSGSGVFGGGTKVTVLAAAGSEQKLISEEDLNSHHHHHH", "obs_value": 6.1}
